- System Tested: UniProt:Q9NR97
- Sequence (Q9NR97 27-1041): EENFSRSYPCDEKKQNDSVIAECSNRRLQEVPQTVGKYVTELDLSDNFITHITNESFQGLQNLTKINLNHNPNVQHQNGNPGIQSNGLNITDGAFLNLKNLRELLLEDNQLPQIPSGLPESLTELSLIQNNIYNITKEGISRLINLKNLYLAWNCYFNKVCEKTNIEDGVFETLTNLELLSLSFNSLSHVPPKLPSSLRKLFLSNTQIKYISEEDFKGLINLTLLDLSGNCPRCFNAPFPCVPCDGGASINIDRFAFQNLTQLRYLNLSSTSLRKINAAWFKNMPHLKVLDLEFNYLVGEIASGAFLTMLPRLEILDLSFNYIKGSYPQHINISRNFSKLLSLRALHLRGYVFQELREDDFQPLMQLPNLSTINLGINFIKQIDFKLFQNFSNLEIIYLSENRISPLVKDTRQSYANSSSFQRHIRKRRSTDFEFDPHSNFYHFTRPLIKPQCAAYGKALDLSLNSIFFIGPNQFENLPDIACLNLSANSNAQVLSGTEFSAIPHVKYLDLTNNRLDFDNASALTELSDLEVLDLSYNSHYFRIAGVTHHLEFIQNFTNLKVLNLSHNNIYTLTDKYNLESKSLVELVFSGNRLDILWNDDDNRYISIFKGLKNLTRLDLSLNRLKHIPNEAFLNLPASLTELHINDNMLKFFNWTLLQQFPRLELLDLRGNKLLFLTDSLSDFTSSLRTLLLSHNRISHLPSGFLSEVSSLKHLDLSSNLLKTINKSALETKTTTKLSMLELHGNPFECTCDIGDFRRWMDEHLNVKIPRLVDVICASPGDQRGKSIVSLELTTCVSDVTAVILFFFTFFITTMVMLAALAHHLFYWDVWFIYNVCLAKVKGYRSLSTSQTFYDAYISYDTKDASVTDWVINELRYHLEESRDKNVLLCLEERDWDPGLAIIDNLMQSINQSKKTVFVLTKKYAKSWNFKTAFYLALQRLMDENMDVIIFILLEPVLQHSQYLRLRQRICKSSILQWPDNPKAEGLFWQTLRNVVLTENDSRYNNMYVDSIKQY
- Assay Text: TLR8 human peripheral blood mononuclear cell (PBMC) cell-based assay (Compound A as agonist; TNFα and IL12p40 readout)
- Measurement Setup: human PBMCs, TLR8 agonist Compound A at 800 nM, 6 hours, antagonist potency; read-out: TLR-8 EC50
Measurement Label: log10(EC50) (log10 of the value in nM)
Parameter value (number): base-10 log of EC50 in nM.

Completed entries (count: 3):
> print(dat)
                                   compound   system.tested  numeric.readout
1  Cc1c(-c2[nH]c3sc(C4CCN(C(=O)[C@H]5CN6CCCC6CO5)CC4)c(C)c3c2C(C)C)cn2ncnc2c1C (stereo partly drawn) [Example 104]  UniProt:Q9NR97             0.40
2  COCCNC(=O)CN1C[C@@H]2C[C@H]1C[C@H]2c1sc2[nH]c(-c3cn4ncnc4c(C)c3C)c(C(C)C)c2c1C [Example 272]  UniProt:Q9NR97             0.08
3  Cc1c(-c2[nH]c3sc(C4CCN(C(=O)[C@H]5C[C@@]6(CN(C)CCO6)C5)CC4)c(C)c3c2C(C)C)cn2ncnc2c1C [Example 296]  UniProt:Q9NR97             0.95

Now examine the next entry.
Looking up Cc1c(C2CCNCC2)sc2[nH]c(-c3cc(C)c4nccn4c3)c(C(C)C)c12 [Example 252] , I see its log10(EC50) listed as 1.53

----------
- System Tested: TLR7 (Homo sapiens (Human), UniProt Q9NYK1)
- Sequence (Q9NYK1 27-1049): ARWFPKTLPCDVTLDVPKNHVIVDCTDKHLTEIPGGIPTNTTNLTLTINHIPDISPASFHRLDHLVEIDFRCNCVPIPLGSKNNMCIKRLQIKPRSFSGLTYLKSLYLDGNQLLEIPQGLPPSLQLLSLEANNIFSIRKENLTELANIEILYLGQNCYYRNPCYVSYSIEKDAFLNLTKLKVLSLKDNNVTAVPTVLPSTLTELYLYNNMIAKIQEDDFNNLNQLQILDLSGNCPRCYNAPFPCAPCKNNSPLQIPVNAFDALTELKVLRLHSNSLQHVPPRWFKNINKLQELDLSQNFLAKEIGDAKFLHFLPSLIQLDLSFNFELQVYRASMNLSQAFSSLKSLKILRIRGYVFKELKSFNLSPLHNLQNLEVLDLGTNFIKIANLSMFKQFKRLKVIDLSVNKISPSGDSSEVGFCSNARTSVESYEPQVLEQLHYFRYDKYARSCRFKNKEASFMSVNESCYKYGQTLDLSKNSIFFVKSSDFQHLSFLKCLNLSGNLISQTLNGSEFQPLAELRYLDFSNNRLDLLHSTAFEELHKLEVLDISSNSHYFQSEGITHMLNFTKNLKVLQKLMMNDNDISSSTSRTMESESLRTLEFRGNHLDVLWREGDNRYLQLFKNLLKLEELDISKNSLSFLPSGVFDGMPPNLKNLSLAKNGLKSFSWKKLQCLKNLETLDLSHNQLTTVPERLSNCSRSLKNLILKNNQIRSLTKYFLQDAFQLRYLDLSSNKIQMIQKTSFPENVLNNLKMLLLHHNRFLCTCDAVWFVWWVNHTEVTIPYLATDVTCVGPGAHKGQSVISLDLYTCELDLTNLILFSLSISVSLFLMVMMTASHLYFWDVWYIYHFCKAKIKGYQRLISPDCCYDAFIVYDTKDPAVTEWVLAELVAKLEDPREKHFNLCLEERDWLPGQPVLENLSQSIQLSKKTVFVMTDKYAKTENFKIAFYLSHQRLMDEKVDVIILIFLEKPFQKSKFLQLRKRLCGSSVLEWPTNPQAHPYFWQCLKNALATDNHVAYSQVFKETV
- Assay Text: TLR7 human peripheral blood mononuclear cell (PBMC) cell-based assay (GS-986 as agonist; IL-6 and IFNα readout)
- Measurement Setup: human PBMCs, TLR7 agonist GS-986 at 400 nM, 6 hours, antagonist potency; read-out: TLR-7 EC50
- Experimental: Human peripheral blood mononuclear cells (PBMCs) consist of lymphocytes, monocytes and dendritic cells that express TLR7, TLR8 and TLR9. […] After counting, the cell density was adjusted to 2 million cells/ml and incubated for 1 hour at 37° C., 5% CO2 for recovery. […] The level of cytokines (IL-6 and IFNα) in the supernatant was measured by electrochemiluminescence immunoassays (Mesoscale Discovery) following manufacturer's recommended protocols.
Measurement Label: pEC50
Answer as the number alone; pEC50 is minus log10 of concentration in mol/L.

> print(dat)
                                   molecule                             system.tested  measurement.label  numeric.readout
1  Cc1c(C2CCN(C(=O)[C@@H]3COCCN3)CC2)sc2[nH]c(-c3cc(C)c4ncnn4c3)c(C(C)C)c12  TLR7 (Homo sapiens (Human), UniProt Q9NYK1)              pEC50             9.27
2  Cc1c(C2CCN(C(=O)[C@@H]3C[C@H](F)CN3)CC2)sc2[nH]c(-c3cc(C)c4ncnn4c3)c(C(C)C)c12  TLR7 (Homo sapiens (Human), UniProt Q9NYK1)              pEC50             9.62
3  Cc1c(C2CC3CCC(C2)N3CC(N)=O)sc2[nH]c(-c3cc(C)c4ncnn4c3)c(C(C)C)c12 (centres unmarked)  TLR7 (Homo sapiens (Human), UniProt Q9NYK1)              pEC50             9.72
4  Cc1c(-c2[nH]c3sc([C@@H]4C[C@@H]5C[C@H]4CN5Cc4n[nH]c(=O)[nH]4)c(C)c3c2C(C)C)cn2ncnc2c1C  TLR7 (Homo sapiens (Human), UniProt Q9NYK1)              pEC50             9.38
5  Cc1c(-c2[nH]c3sc(C4CCN(CC(N)=O)CC4)cc3c2C(C)C)cn2ncnc2c1C  TLR7 (Homo sapiens (Human), UniProt Q9NYK1)              pEC50             9.00
6  Cc1c(-c2ccc(N3CCNCC3)cc2)sc2[nH]c(-c3cc(C)c4ncnn4c3)c(C(C)C)c12  TLR7 (Homo sapiens (Human), UniProt Q9NYK1)              pEC50             9.25
7  Cc1c(C2CC3(CCN(CC(N)=O)CC3)C2)sc2[nH]c(-c3cc(C)c4ncnn4c3)c(C(C)C)c12  TLR7 (Homo sapiens (Human), UniProt Q9NYK1)              pEC50             9.52
8  Cc1c(-c2[nH]c3sc(C4CC5(C4)CN(C(=O)[C@H]4COCCN4)C5)c(C)c3c2C(C)C)cn2ncnc2c1C  TLR7 (Homo sapiens (Human), UniProt Q9NYK1)              pEC50             8.68

Looking up Cc1c(-c2[nH]c3sc(C4CCN(C(=O)[C@H]5CNCCO5)CC4)c(C)c3c2C(C)C)cn2ncnc2c1C , I see its pEC50 listed as 10.05

Looking up Cc1c(-c2[nH]c3sc([C@@H]4C[C@@H]5C[C@H]4CN5CC(=O)N[C@H]4C[C@H](O)C4)c(C)c3c2C(C)C)cn2ncnc2c1C , I see its pEC50 listed as 9.19

Looking up Cc1c(C2CCNCC2)sc2[nH]c(-c3cn(C)c4ncccc34)c(C(C)C)c12 , I see its pEC50 listed as 9.49

Looking up Cc1nc2c(C)cc(-c3[nH]c4sc(C5CCN(C(=O)[C@@H]6COCCN6)CC5)c(C)c4c3C(C)C)cn2n1 , I see its pEC50 listed as 9.17

Looking up Cc1c(C2CCC3(C2)CN(CC(N)=O)C3)sc2[nH]c(-c3cc(C)c4ncnn4c3)c(C(C)C)c12 (centres unmarked) , I see its pEC50 listed as 9.42

Looking up Cc1cc(-c2[nH]c3sc(C(=O)N(C)C4CCN(CCO)CC4)cc3c2C(C)C)cn2ncnc12 , I see its pEC50 listed as 9.30
